Cited source: ChEMBL document CHEMBL6127079

Assignment: determine reported MIC for the given compounds.
tested on: Cryptococcus neoformans; assay: Antifungal activity against fluconazole-resistant Cryptococcus neoformans ATCC 32719 assessed as inhibition of fungal growth incubated for 24 to 72 hrs; assay type: functional; conditions: time 24-72 hrs
Give bare numbers, in µg/mL.

Some compounds with known MIC results, for comparison:
INSERT INTO assay_data (compound, endpoint_value) VALUES
  ('O=C(CN1CCC(C(=O)Nc2cccc(Br)c2)CC1)Nc1ccc2c(c1)NC(=O)C1(CCNC1=O)C2 (racemic)', 32),
  ('Cc1ccc(NC(=O)/C=C/C(=O)Nc2ccc3c(c2)NC(=O)C2(CCNC2=O)C3)cc1 (racemic)', 64),
  ('O=C(/C=C/C(=O)Nc1ccc2c(c1)NC(=O)C1(CCNC1=O)C2)Nc1ccc(Br)cc1 (racemic)', 32),
  ('O=C(CN1CCC(C(=O)Nc2cccc3ccccc23)CC1)Nc1ccc2c(c1)NC(=O)C1(CCNC1=O)C2 (racemic)', 64);

Provide the reported MIC of each entry below, same order.
1. O=C(CN1CCC(C(=O)Nc2ccc(Br)cc2)CC1)Nc1ccc2c(c1)NC(=O)C1(CCNC1=O)C2 (racemic)
2. OC(Cn1cncn1)(Cn1cncn1)c1ccc(F)cc1F
3. O=C(/C=C/C(=O)Nc1cccc2ccccc12)Nc1ccc2c(c1)NC(=O)C1(CCNC1=O)C2 (racemic)
4. O=C(/C=C/C(=O)Nc1nc2ccccc2s1)Nc1ccc2c(c1)NC(=O)C1(CCNC1=O)C2 (racemic)
5. Cc1cc([N+](=O)[O-])ccc1NC(=O)C1CCN(CC(=O)Nc2ccc3c(c2)NC(=O)C2(CCNC2=O)C3)CC1 (racemic)

Outgoing:
1: 32; 2: 256; 3: 32; 4: 64; 5: 64

----------
test system: Candida tropicalis; assay: Inhibition of chitin synthase extracted from Candida tropicalis ATCC 750 using UDP-GlcNAc as substrate assessed as inhibition rate at 300 ug/ml by TMB based microplate analyzer relative to control; conditions: dose 300.0 µg/ml
property label: inhibition (%)
Answers are plain numbers, in %.

Below are worked cases with known answers.
INSERT INTO results (compound, endpoint_value) VALUES
  ('CCCCNC(=O)/C=C/C(=O)Nc1ccc2c(c1)NC(=O)C1(CCNC1=O)C2 (racemic)', 35.7),
  ('CCCCCCNC(=O)C1CCN(CC(=O)Nc2ccc3c(c2)NC(=O)C2(CCNC2=O)C3)CC1 (racemic)', 24),
  ('O=C(/C=C/C(=O)Nc1ccc2c(c1)NC(=O)C1(CCNC1=O)C2)Nc1ccc(Cl)cc1 (racemic)', 56.3);

# return inhibition for each item in the list
1. O=C(/C=C/C(=O)Nc1ccccc1Br)Nc1ccc2c(c1)NC(=O)C1(CCNC1=O)C2 (racemic)
2. O=C(/C=C/C(=O)Nc1nccs1)Nc1ccc2c(c1)NC(=O)C1(CCNC1=O)C2 (racemic)
3. O=C(/C=C/C(=O)Nc1nc2ccccc2s1)Nc1ccc2c(c1)NC(=O)C1(CCNC1=O)C2 (racemic)
4. O=C(/C=C/C(=O)Nc1ccc2c(c1)NC(=O)C1(CCNC1=O)C2)Nc1ccc(Br)cc1 (racemic)
5. O=C(/C=C/C(=O)Nc1ccc2c(c1)NC(=O)C1(CCNC1=O)C2)NCc1ccccc1 (racemic)

Outgoing:
1: 66.2; 2: 55.8; 3: 82.5; 4: 72.7; 5: 49.5

List inhibition for every entry below, keeping the order given.
1. O=C(/C=C/C(=O)Nc1ccc2c(c1)NC(=O)C1(CCNC1=O)C2)Nc1ccc(F)cc1 (racemic)
2. O=C(CN1CCC(C(=O)Nc2cccc(Br)c2)CC1)Nc1ccc2c(c1)NC(=O)C1(CCNC1=O)C2 (racemic)
3. CCCNC(=O)C1CCN(CC(=O)Nc2ccc3c(c2)NC(=O)C2(CCNC2=O)C3)CC1 (racemic)
4. O=C(/C=C/C(=O)Nc1ccc2c(c1)NC(=O)C1(CCNC1=O)C2)Nc1ccccc1 (racemic)
5. O=C(/C=C/C(=O)Nc1cccc2ccccc12)Nc1ccc2c(c1)NC(=O)C1(CCNC1=O)C2 (racemic)

Outgoing:
46.8
80.6
22.5
39.6
79.5
